Task for the reader: assign each of the following compounds its reported viability.
test: drug combination growth inhibition, ovarian cancer – cell-based, oncology-focused library, rucaparib conditional, profiling panel (AID 1508598); conditions: patient-derived ovarian cancer cells, CellTiter-Glo viability, 144 h; at 1.25 µM; OCI-C5x cells; with rucaparib 10 µM; stronger effect = lower value; 100% = cells with rucaparib alone
Express your answer in %, writing the number without its unit.

q: Return value of viability for input "CCNC(=O)c1noc(-c2cc(C(C)C)c(O)cc2O)c1-c1ccc(CN2CCOCC2)cc1" , no commentary.
a: 10.6

q: Determine its reported viability: "CNC(=O)c1cc(Oc2ccc(NC(=O)Nc3cc(C(C)(C)C)nn3-c3ccc4ncccc4c3)c(F)c2)ccn1"
a: 77.5

q: Give recorded viability. "CS(=O)(=O)c1ccc(C(=O)Nc2ccc(Cl)c(-c3ccccn3)c2)c(Cl)c1"
a: 133

q: Identify measured viability corresponding to "Nc1ccc(C(=O)Nc2cccc(-c3nc(N4CCOCC4)c4oc5ncccc5c4n3)c2)cn1"
a: 150

q: Supply recorded viability for "CN(C)N=Nc1nc[nH]c1C(N)=O" here.
a: 116

q: Identify measured viability associated with "S=C(NCc1ccc2c(c1)OCO2)N1CCN(c2ncnc3c2oc2ccccc23)CC1"
a: 118

q: Please list viability recorded for the compound "Oc1cccc(-c2nc(N3CCOCC3)c3oc4ncccc4c3n2)c1"
a: 78.6

q: Give recorded viability. "Cc1cc(Nc2cc(N3CCN(C)CC3)nc(/C=C/c3ccccc3)n2)n[nH]1"
a: 90.9

q: Specify measured viability for "Cc1cccc(Nc2nc(-c3ccncc3)cs2)c1" .
a: 129

q: Output viability of "C[C@@H](Oc1cc(-c2cnn(C3CCNCC3)c2)cnc1N)c1c(Cl)ccc(F)c1Cl"
a: 117

q: Specify measured viability for "CN1CCCN(C(=O)c2cccc(-c3ccc(/C=C4/C(=O)Nc5ccc(Cl)cc54)o3)c2)CC1" .
a: 98

q: Supply measured viability of "CC1(C)CCC(c2ccc(Cl)cc2)=C(CN2CCN(c3ccc(C(=O)NS(=O)(=O)c4ccc(N[C@H](CCN5CCOCC5)CSc5ccccc5)c(S(=O)(=O)C(F)(F)F)c4)cc3)CC2)C1" in your reply.
a: 10.8

q: // Input: "Nc1cc(C(F)(F)F)c(-c2cc(N3CCOCC3)nc(N3CCOCC3)n2)cn1" . Output its viability only.
a: 71.8

q: Recall and state the measured viability for "CCCCCCCCc1ccc(CCC(N)(CO)CO)cc1" .
a: 103

q: Look up and state reported viability for "O=C(O)c1ccc2c(c1)nc(Nc1cccc(Cl)c1)c1ccncc12"
a: 68.3

q: Consider the compound "N#CCNC(=O)c1ccc(-c2ccnc(Nc3ccc(N4CCOCC4)cc3)n2)cc1" . State its measured viability.
a: 120

q: Identify measured viability corresponding to NC(=O)C1CCCc2c1[nH]c1ccc(Cl)cc21 (stereo not given)
a: 109

q: Output viability of "O=C(Nc1ccccc1-c1cn2c(CN3CCNCC3)csc2n1)c1cnc2ccccc2n1"
a: 131

q: Report viability for "CCN(CC)CCCCNc1ncc2cc(-c3cc(OC)cc(OC)c3)c(NC(=O)NC(C)(C)C)nc2n1"
a: 140

q: Entry "CO[C@@H](C(=O)N1Cc2[nH]nc(NC(=O)c3ccc(N4CCN(C)CC4)cc3)c2C1)c1ccccc1" needs its viability filled in; supply it.
a: 84.8
